- Test system: Calf thymus DNA
- Measurement Description: Displacement of DNA-bound ethidium bromide from calf thymus DNA by fluorescence assay
- Format: nucleic-acid assay
- Settings: Bos taurus
Outcome Measure: log10(Kapp) (log10 of the value in ×10⁶ /M)
Values below are the log10 of the recorded Kapp, with ×10⁶ /M as the unit.

{"Molecule": "NCC(=O)OCCCn1c2c(c3ccccc3c1=O)C(=O)c1ccccc1-2", "Outcome Measure": "log10(Kapp)", "Experimental Value": -0.18}
{"Molecule": "Cl.NCC(=O)OCCn1c2c(c3ccccc3c1=O)C(=O)c1ccccc1-2", "Outcome Measure": "log10(Kapp)", "Experimental Value": -0.17}
{"Molecule": "Cl.N[C@H](Cc1cnc[nH]1)C(=O)NCCn1c2c(c3ccccc3c1=O)C(=O)c1ccccc1-2", "Outcome Measure": "log10(Kapp)", "Experimental Value": -0.17}
{"Molecule": "Cl.NC(Cc1cnc[nH]1)C(=O)NCCCn1c2c(c3ccccc3c1=O)C(=O)c1ccccc1-2 (racemic)", "Outcome Measure": "log10(Kapp)", "Experimental Value": -0.14}
{"Molecule": "NCCCC[C@@H](N)C(=O)OCCn1c2c(c3ccccc3c1=O)C(=O)c1ccccc1-2", "Outcome Measure": "log10(Kapp)", "Experimental Value": -0.05}

[Q] What log10(Kapp) appears in the records for this molecule with Calf thymus DNA? `Cl.Cl.NCCCC[C@H](N)C(=O)NCCCn1c2c(c3ccccc3c1=O)C(=O)c1ccccc1-2`
[A] 1.01

[Q] What log10(Kapp) appears in the records for this molecule with Calf thymus DNA? `Cl.NCCNCCCn1c2c(c3ccccc3c1=O)C(=O)c1ccccc1-2`
[A] 1.09

[Q] What log10(Kapp) appears in the records for this molecule with Calf thymus DNA? `Cl.Cl.NCCCC[C@H](N)C(=O)NCCn1c2c(c3ccccc3c1=O)C(=O)c1ccccc1-2`
[A] 0.77

[Q] What log10(Kapp) appears in the records for this molecule with Calf thymus DNA? Cl.Cl.NCCCCC(N)C(=O)NCCn1c2c(c3ccccc3c1=O)C(=O)c1ccccc1-2 (racemic)
[A] 0.78

###

- Test system: Calf thymus DNA
- Measurement Description: Binding affinity to calf thymus DNA assessed as change in melting temperature at drug/DNA ratio 0.25
- Assay type: nucleic-acid assay
- Settings: Bos taurus
Label scheme for ΔTm: lower than 5 °C is condition not met, 5 °C and above is condition met.

Please review the entries below; each comes with its answer.
{"Compound": "Cl.NCC(=O)NCCCn1c2c(c3ccccc3c1=O)C(=O)c1ccccc1-2", "Assigned Category": "condition met"}
{"Compound": "Cl.N[C@@H](Cc1cnc[nH]1)C(=O)OCCn1c2c(c3ccccc3c1=O)C(=O)c1ccccc1-2", "Assigned Category": "condition not met"}
{"Compound": "NCCCC[C@@H](N)C(=O)NCCn1c2c(c3ccccc3c1=O)C(=O)c1ccccc1-2", "Assigned Category": "condition met"}
{"Compound": "Cl.Cl.NCCCC[C@H](N)C(=O)OCCCn1c2c(c3ccccc3c1=O)C(=O)c1ccccc1-2", "Assigned Category": "condition met"}
{"Compound": "Cl.Cl.NCCCC[C@H](N)C(=O)NCCn1c2c(c3ccccc3c1=O)C(=O)c1ccccc1-2", "Assigned Category": "condition met"}

Now consider a different compound.
[Q] # check: ΔTm of COc1cc([C@@H]2c3cc4c(cc3[C@@H](O[C@@H]3O[C@@H]5CO[C@@H](C)O[C@H]5[C@H](O)[C@H]3O)[C@H]3COC(=O)[C@H]23)OCO4)cc(OC)c1O [ETOPOSIDE] is greater than or equal to 5 °C
[A] condition not met

###

Form field: ΔTm (one value per entry).
- System: Calf thymus DNA
- Measurement Description: Binding affinity to calf thymus DNA assessed as change in melting temperature at drug/DNA ratio 0.25
- Format: nucleic-acid assay
- Settings: Bos taurus
Form field: result (number plus unit)

# count of solved cases: 5
{"Molecule": "Cl.NCC(=O)NCCn1c2c(c3ccccc3c1=O)C(=O)c1ccccc1-2", "Measured On": "Calf thymus DNA", "Experimental Value": "5 °C"}
{"Molecule": "Cl.Cl.NCCCCC(N)C(=O)OCCCn1c2c(c3ccccc3c1=O)C(=O)c1ccccc1-2 (racemic)", "Measured On": "Calf thymus DNA", "Experimental Value": "12.6 °C"}
{"Molecule": "NCCCC[C@@H](N)C(=O)NCCCn1c2c(c3ccccc3c1=O)C(=O)c1ccccc1-2", "Measured On": "Calf thymus DNA", "Experimental Value": "18.4 °C"}
{"Molecule": "Cl.NC(Cc1cnc[nH]1)C(=O)NCCCn1c2c(c3ccccc3c1=O)C(=O)c1ccccc1-2 (racemic)", "Measured On": "Calf thymus DNA", "Experimental Value": "4.9 °C"}
{"Molecule": "Cl.NC(Cc1cnc[nH]1)C(=O)OCCn1c2c(c3ccccc3c1=O)C(=O)c1ccccc1-2 (racemic)", "Measured On": "Calf thymus DNA", "Experimental Value": "2.1 °C"}

[Q] What ΔTm appears in the records for this molecule with Calf thymus DNA? Cl.NC(Cc1cnc[nH]1)C(=O)NCCn1c2c(c3ccccc3c1=O)C(=O)c1ccccc1-2 (racemic)
[A] 4.5 °C

[Q] What ΔTm appears in the records for this molecule with Calf thymus DNA? `Cl.N[C@H](Cc1cnc[nH]1)C(=O)NCCn1c2c(c3ccccc3c1=O)C(=O)c1ccccc1-2`
[A] 7.3 °C
